B1: Zinc finger MYM-type protein 2, residues 463 to 506; numbered along this chain, Q9UBW7 (parent)
chain: IMNCCEQCGEYLPSKGAGNNVLVIDGQQKRFCCQSCVSEYKQVG

Variants of: B1
Assay: abundance fitness (aPCA) (normalised: wild type 0, dead -1); higher = more abundant; growth selection in yeast, the domain comes from the species named
Details: Homo sapiens
This section presents variants with their documented abundance fitness values.
Please respond with just the number, no unit label.

// solved cases for abundance fitness follow
mutation name | abundance fitness
G9C | -0.148
C4M | -0.146
N3A | -0.09
Q42T | 0.002
C5L | -0.922
E39P | -0.285
C4D | -0.007
G9E | -0.495

Name the recorded abundance fitness for E6D . 0.071
